- EXPERIMENTAL PROTOCOL: NOVARTIS: Cytotoxicity against human hepatocellular carcinoma cell line (Huh7)
- Type: toxicity, cell-based, Huh-7
- CONDITION CONTEXT: Huh7 cells (hepatocellular carcinoma cell line)
Reported CC50 values for the following molecules.

Sample answers from the record:
Find the recorded CC50 belonging to "c1ccc2cc3c(Nc4ccc(N5CCCCC5)cc4)ccnc3cc2c1" and report it.
67.7 µM

# get_value(readout='CC50', item= "COc1cc(NC(=O)C(F)(F)F)c(C(=O)c2ccc(C(F)(F)F)cc2)cc1OC" )
> 10 µM

I am curious: what CC50 value has been reported for COCCN(C)C(=O)COC(c1cccs1)c1cccnc1Cl (stereo not given) ?
> 10 µM

Any idea what CC50 was measured for COc1cccc(-c2ccc(O)c(CNCC3CC4C=CC3C43CC3)c2)n1 (stereo not given) ?
> 85.9 µM

I'd like to know its CC50. The molecule in question is "CN(C)CCCN(Cc1cc2cc3c(cc2[nH]c1=O)OCO3)C(=S)Nc1cccc(Cl)c1"
> 100 µM

Look up CC50 for this molecule: O=C(COc1ccc(Cl)cc1)N1CCCn2cccc2C1c1ccc(Cl)cc1 (stereo not given)
> 10 µM

Look at this molecule and give its reported CC50. CC1=C(C(=O)OCC(C)C)C(c2ccc(OCc3ccccc3)cc2)C2=C(CC(c3ccccc3)CC2=O)N1 (stereo not given)
> 100 µM

Using the record for "CC(=O)N(C1=C(N2CCOCC2)C(=O)c2ccccc2C1=O)c1ccc(Br)cc1" , report its CC50.
19.1 µM

Recorded CC50 for "CC(C)CNC(=O)c1cnc(NCCCN(C)C)nc1NCCc1ccccc1" , please?
> 10 µM

Next molecule, please.
So what's the measured CC50 for this one? "CCCCCCC(=O)Oc1ccccc1-c1nc2ccccn2c1NC(C)(C)CC(C)(C)C"
> 10 µM

###

- EXPERIMENTAL PROTOCOL: NOVARTIS: Cytotoxicity against human hepatocellular carcinoma cell line (Huh7)
- Type: toxicity, cell-based, Huh-7
- CONDITION CONTEXT: Huh7 cells (hepatocellular carcinoma cell line)
METRIC NAME: CC50 (µM)
Provide only the numeric value, understood in µM.

Solved entries:
Would you kindly share the measured CC50 for CCCCC(=O)N(CCCC(C)Nc1cc(OC)cc2cccnc12)Cc1ccccc1OC (configuration not stated) ?
1.06

May I ask what CC50 has been recorded for Cc1oc2c(c1C(=O)NCC1CCCO1)C(=O)c1ccccc1C2=O (configuration not stated) ?
6.93

Next:
Quick one: CC50 of "OCCNc1nc(Nc2ccc(Cl)cc2)nc2ccccc12" ?
11.6

Given the entry "O=C(CCl)Nc1ccc(CN2CCCCC2)cc1" , report its measured CC50.
34.1

###

- EXPERIMENTAL PROTOCOL: NOVARTIS: Cytotoxicity against human hepatocellular carcinoma cell line (Huh7)
- Assay type: toxicity, cell-based, Huh-7
- CONDITION CONTEXT: Huh7 cells (hepatocellular carcinoma cell line)
Measured CC50, listed per entry.

# CC50 lookup, item "CCOc1ccc(C2C(C(=O)OC)=CNC=C2C(=O)OC)cc1Cl"
> 100 µM

I would be grateful if you could share the reported CC50 for "O=C(Nc1ccc(-n2cccn2)cc1)C1CCN(Cc2nc3c(s2)CCCC3)CC1" .
> 100 µM

Please report the recorded CC50 for CC1CCCCN1CCCNc1ncc(C(=O)NCc2ccccc2)c(NC2CCCC2)n1 (configuration not stated) .
> 10 µM

For the molecule CCC(=O)NC(c1ccccc1Cl)c1cc(Cl)c2cccnc2c1O (configuration not stated) , what CC50 is on record?
35.4 µM

Need CC50, item "O=C(C1CCC1)N1CCOc2c(cc(-c3csc4ccccc34)cc2OCCc2ccccn2)C1"
> 99.6 µM

---
Looking for the measured CC50 of OC(CNC1CCCCC1)Cn1c2ccc(Br)cc2c2cc(Br)ccc21 (configuration not stated) , can you help?
6.06 µM

Dear colleague, I am looking for the recorded CC50 of the following molecule: "COc1ccc(OC)c(-c2ccc(O)c(CNCCc3ccccc3)c2)c1"
> 10 µM

Given the entry "CCn1c2ccccc2[n+]2c(C)cc(C)nc12" , report its measured CC50.
> 100 µM

Quick check: CC50 of "CCCCN1C(=O)/C(=C2/Sc3ccccc3N2C)SC1=Nc1cc(C)ccc1C" ?
> 10 µM

Item under review: "O=C(Nc1ccc(C2=NCCN2)cc1)Nc1cc(C(=O)Nc2ccc(C3=NCCN3)cc2)ccc1C(=O)Nc1ccc(C2=NCCN2)cc1" . Reported CC50?
> 10 µM

Just for reference, ChEMBL document CHEMBL1156829 is where these values come from.
